Field: koff. Provide a value for each of the binders that follow.
TESTED SYSTEM: T1, AAV8 (adeno-associated virus 8)
T1 construct: also called adeno-associated virus serotype 8
ASSAY METHOD TEXT: SPR, AAV amine-coupled to CM5 chip;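 also: nanobodies flowed as analyte at seven concentrations spanning 1–100 nM over immobilized AAV (500–800 RU), kinetic constants derived by fitting the binding curves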
Write the value in s⁻¹ as a bare number.

// query Give the reported koff for this binder. A4-068 (VHH) VHH: VQLQESGGGLVQTGGSLRLSCAASGRAFSLNTMGWYRQAPGKWRELVATVTRGGSTNYAGSVKGRFTISRDNAKNTVYLQMNNLRPEDTAVYYCHVDEVRESSWTTSNLWGQGTQVTVSS
// result 0.00436

// query Report koff, nothing else, for this binder: A4-085 (VHH) VHH: VQLQESGGGLVQPGGSLRLSCAASGSRFSLNTMGWYRQAPGKQREFVAAVTRGGNTNYGDFVKGRFTISRDNAKNTVYLQMNSLRPEDTAVYYCHVDELRESSWTTSNLWGQGTQVTVSS
// result 0.00041

// query // Input: A4-077 (VHH) VHH: VQLQESGGGLVQPGGSLRLSCAASGSMFSINIMGWYRQAPGKQREFVATITRGGSTNYADFVKGRFTISRDNAKNTVYLQMNSLRPEDTAVYYCHVDELRDSSWTTSNLWGQGTQVTVSS . Output its koff only.
// result 0.00038

// query # return recorded koff for input A4-058 (VHH) VHH: VQLQESGGGLVQPGGSLRLSCAASGSIFSINTMGWYRQAPAKQREIVATVTRDGSTNYAESVKGRFTISRDNAKNTVYLQMNSLRPEDTAVYYCHLDEVRQSTWTTSNLWGQGTQVTVSS
// result 0.00173

These measurements were taken from patent US20260193326A1.
